molecular target: TFPI (human TFPI-1α) as coated or added in the ELISA, microarray and enzymatic assays (human), P10646; test: competition; conditions: modification not given
readout-name: IC50

Example entries begin here.
# binder, result
rows = [
    ("FQSKKNVFVFGYFERFRAKL [JBT0580]", "> 5000 nM"),
    ("FDSKKNVFVFGYFERLRAKL [JBT0586]", "> 1670 nM"),
    ("FQSKKNVFVFGYFERLFAKL [JBT0581]", "> 5000 nM"),
]

Report IC50 for every entry below.
1. FFSKKNVFVFGYFERLRAKL [JBT0570]
2. FESKGNVFVFGYFERLRAKL [JBT0516]
3. FQSKFNVFVFGYFERLRAKL [JBT0573]

1. > 5000 nM
2. 1190 nM
3. 1370 nM
